Emax for assorted molecules
- system under test: GABAA1 (α1β2γ2) receptor (Homo sapiens, UniProt P14867+P47870)
- Construct: expressed in transfected cells
- Sequence (P14867 28-456): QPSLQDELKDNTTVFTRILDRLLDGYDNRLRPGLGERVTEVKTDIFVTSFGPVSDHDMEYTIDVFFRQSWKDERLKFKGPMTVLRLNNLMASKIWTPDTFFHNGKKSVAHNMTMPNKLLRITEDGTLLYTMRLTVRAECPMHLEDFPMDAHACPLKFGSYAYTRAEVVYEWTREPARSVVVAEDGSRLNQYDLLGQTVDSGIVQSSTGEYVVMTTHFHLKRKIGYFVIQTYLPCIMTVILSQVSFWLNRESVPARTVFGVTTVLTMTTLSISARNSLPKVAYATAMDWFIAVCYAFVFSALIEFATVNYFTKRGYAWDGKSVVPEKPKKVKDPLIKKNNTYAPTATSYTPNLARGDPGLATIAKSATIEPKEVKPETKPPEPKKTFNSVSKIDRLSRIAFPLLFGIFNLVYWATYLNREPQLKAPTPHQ
- Sequence (P47870 26-512): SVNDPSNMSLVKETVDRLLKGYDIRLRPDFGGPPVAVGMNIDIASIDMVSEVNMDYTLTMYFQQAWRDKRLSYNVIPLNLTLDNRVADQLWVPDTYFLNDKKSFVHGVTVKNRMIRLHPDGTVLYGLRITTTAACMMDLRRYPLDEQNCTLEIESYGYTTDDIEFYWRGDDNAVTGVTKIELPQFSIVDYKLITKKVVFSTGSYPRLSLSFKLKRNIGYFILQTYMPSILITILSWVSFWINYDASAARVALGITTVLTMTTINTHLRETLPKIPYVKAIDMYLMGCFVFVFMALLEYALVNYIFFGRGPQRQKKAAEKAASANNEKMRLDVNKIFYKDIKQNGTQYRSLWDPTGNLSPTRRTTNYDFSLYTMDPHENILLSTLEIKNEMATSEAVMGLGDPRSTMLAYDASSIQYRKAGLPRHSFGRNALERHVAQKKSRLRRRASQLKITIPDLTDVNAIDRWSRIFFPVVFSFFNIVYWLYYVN
- Sequence (P18507 40-475 partner): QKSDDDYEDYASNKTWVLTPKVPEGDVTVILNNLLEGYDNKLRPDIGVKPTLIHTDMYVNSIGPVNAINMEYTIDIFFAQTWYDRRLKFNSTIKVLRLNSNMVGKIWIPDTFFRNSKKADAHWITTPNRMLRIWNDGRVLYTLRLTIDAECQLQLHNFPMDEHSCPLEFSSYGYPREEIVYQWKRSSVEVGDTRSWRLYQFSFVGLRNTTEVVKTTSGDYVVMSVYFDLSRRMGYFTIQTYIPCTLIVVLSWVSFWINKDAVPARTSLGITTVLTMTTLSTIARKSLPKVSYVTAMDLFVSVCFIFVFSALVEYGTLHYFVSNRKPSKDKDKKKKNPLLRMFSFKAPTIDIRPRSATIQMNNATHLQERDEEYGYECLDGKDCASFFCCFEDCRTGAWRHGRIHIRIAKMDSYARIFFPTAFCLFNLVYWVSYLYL
- experimental details: Patch-clamp electrophysiology on recombinant GABAA1 receptor in HEK293 cells, with 3 μM GABA
- Assay type: cell-based
- condition info: HEK293; together with 3 μmol GABA; relative to peak current in 100 μmol GABA
Give a bare numeral; the unit % is implied.

{"columns": ["smiles code", "reported metric", "value reported"],
 "data": [
  ["C[C@@]1(O)CC[C@@]2(C)[C@@H](CC[C@@H]3[C@@H]2CC[C@]2(C)[C@@H](C(=O)Cn4ncnn4)CCC[C@@H]32)C1", "Emax", 93.1],
  ["C[C@@]1(O)CC[C@@]2(C)[C@@H](CC[C@@H]3[C@@H]2CC[C@]2(C)[C@@H](C(=O)COc4noc5ccccc45)CCC[C@@H]32)C1", "Emax", 93.7]
]}

Moving on to the next molecule.
Query: // Input: C[C@]12CC[C@@H](O)C[C@@H]1CC[C@@H]1[C@@H]2CC[C@]2(C)[C@@H](C(=O)Cn3ccnn3)CCC[C@@H]12 . Output its Emax only.
Response: 72.8

----------
- system under test: GABAA1 (α1β2γ2) receptor (Homo sapiens, UniProt P14867+P47870)
- Construct: expressed in transfected cells
- experimental details: Patch-clamp electrophysiology on recombinant GABAA1 receptor in HEK293 cells, with 3 μM GABA
- Assay type: cell-based
- condition info: HEK293; 0.1 μM compound together with 3 μmol GABA; read-out: potency: ratio of the peak current on the GABAA1 receptor to the peak current in 100 μmol GABA
reported metric: Emax at 0.1 µM

Example compounds with recorded Emax at 0.1 µM:
{"columns": ["compound", "value reported"],
 "data": [
  ["C[C@]12CC[C@@H](O)C[C@@H]1CC[C@@H]1[C@@H]2CC[C@]2(C)[C@@H](C(=O)Cn3cnc4cncnc43)CCC[C@@H]12", "0 to 20%"],
  ["C[C@]12CC[C@@H](O)C[C@@H]1CC[C@@H]1[C@@H]2CC[C@]2(C)[C@@H](C(=O)Cn3cnnn3)CCC[C@@H]12", "20 to 40%"],
  ["C[C@]12CC[C@@H](O)C[C@@H]1CC[C@@H]1[C@@H]2CC[C@]2(C)[C@@H](C(=O)Cn3ccc4ccccc43)CCC[C@@H]12", "20 to 40%"]
]}

Query: Determine its reported Emax at 0.1 µM: C[C@]12CC[C@@H](O)C[C@@H]1CC[C@@H]1[C@@H]2CC[C@]2(C)[C@@H](C(=O)Cn3ncnn3)CCC[C@@H]12
Response: 20 to 40%

Query: Output measured Emax at 0.1 µM for this item: C[C@@]1(O)CC[C@@]2(C)[C@@H](CC[C@@H]3[C@@H]2CC[C@]2(C)[C@@H](C(=O)COc4nc[nH]n4)CCC[C@@H]32)C1
Response: 0 to 20%

Query: Annotate the compound C[C@@]1(O)CC[C@@]2(C)[C@@H](CC[C@@H]3[C@@H]2CC[C@]2(C)[C@@H](C(=O)Cn4cnnn4)CCC[C@@H]32)C1 with its measured Emax at 0.1 µM.
Response: 0 to 20%

Query: Please report Emax at 0.1 µM for the following compound: C[C@@]1(O)CC[C@@]2(C)[C@@H](CC[C@@H]3[C@@H]2CC[C@]2(C)[C@@H](C(=O)C(n4cc(C#N)cn4)n4cc(C#N)cn4)CCC[C@@H]32)C1
Response: 0 to 20%

Query: Hello, please tell me recorded Emax at 0.1 µM for this one: C[C@@]1(O)CC[C@@]2(C)[C@@H](CC[C@@H]3[C@@H]2CC[C@]2(C)[C@@H](C(=O)Cn4cc(C#N)cn4)CCC[C@@H]32)C1
Response: 0 to 20%

Query: Entry C[C@@]1(O)CC[C@H]2[C@H](CC[C@@H]3[C@@H]2CC[C@]2(C)[C@@H](C(=O)COc4ncnc5cnc(F)cc45)CCC[C@@H]32)C1 needs its Emax at 0.1 µM filled in; supply it.
Response: 0 to 20%

----------
Property: EC50; scope: individual compounds
- system under test: GABAA4 (α4β3δ) receptor (Homo sapiens, UniProt P28472+P48169)
- Construct: expressed in transfected cells; host or cells: HEK293 (transient transfection, plasmids 1:1:1)
- Sequence (P48169 36-554): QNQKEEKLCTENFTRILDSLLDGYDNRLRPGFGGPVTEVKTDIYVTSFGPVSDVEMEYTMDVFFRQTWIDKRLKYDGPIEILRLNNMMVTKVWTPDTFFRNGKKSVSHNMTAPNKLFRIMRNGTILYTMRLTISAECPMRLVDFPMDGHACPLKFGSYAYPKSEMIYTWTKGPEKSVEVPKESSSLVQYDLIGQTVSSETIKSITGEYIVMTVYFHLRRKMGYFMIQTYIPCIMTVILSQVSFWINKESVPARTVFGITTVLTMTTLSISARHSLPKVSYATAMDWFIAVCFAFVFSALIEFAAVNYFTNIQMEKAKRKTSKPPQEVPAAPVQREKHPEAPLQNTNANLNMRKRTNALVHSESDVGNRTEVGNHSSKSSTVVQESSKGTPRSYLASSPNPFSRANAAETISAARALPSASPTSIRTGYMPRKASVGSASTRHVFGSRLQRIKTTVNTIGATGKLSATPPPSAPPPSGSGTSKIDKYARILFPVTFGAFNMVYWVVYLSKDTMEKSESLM
- Sequence (P28472 26-473): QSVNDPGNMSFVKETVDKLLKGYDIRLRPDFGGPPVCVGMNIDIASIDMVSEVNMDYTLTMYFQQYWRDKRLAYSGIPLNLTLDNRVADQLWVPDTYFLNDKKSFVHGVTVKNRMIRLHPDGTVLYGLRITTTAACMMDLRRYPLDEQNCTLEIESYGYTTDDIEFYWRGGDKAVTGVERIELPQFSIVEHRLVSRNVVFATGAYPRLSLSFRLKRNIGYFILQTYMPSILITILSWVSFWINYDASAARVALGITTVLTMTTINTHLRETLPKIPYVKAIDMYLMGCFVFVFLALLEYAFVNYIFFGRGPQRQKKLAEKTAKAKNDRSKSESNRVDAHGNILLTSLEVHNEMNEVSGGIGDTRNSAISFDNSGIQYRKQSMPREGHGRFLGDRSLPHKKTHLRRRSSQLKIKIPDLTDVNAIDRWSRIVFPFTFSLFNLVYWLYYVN
- Sequence (O14764 25-452 partner): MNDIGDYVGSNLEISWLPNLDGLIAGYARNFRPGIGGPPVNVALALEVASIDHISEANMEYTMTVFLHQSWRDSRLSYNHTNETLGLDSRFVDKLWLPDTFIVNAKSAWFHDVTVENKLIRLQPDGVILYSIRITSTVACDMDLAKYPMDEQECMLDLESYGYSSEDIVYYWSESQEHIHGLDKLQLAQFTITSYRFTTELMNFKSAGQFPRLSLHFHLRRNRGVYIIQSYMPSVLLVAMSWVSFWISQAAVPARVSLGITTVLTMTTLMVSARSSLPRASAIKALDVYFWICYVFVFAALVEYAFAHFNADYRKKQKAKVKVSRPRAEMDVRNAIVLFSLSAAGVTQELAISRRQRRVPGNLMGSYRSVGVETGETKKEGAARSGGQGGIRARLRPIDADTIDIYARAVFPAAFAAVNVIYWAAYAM
- experimental details: Patch-clamp electrophysiology, compound alone or with 10 nM GABA (Table 3)
- Type: cell-based
- condition info: EC50 (with 10 nM GABA), with 10 nM GABA
- From the text: The present invention applies the two subunits of the recombinant GABAA receptor: α1β2γ2 and α4β3δ to evaluate the potency of the exemplary compounds in vitro by patch-clamp electrophysiology. […] Whole cell model recorded GABAA4 receptors current experimental protocol was indicated as follows: When sealing, cell was at a holding potential of −70 mV, with gap-free mode to record the peak current. […]
Numeric answer plus unit only.

{"columns": ["compound", "EC50"],
 "data": [
  ["CC(=O)C1CCCC2[C@@H]3CC[C@H]4C[C@H](O)CC[C@]4(C)[C@H]3CC[C@]12C (some centres unmarked)", "132 nM"]
]}

Query: Supply measured EC50 of C[C@@]1(O)CC[C@H]2[C@H](CC[C@@H]3[C@@H]2CC[C@]2(C)[C@@H](C(=O)Cn4cc(C#N)cn4)CC[C@@H]32)C1 [The control, reference compound] in your reply.
Response: 219 nM

----------
- system under test: GABAA4 (α4β3δ) receptor (Homo sapiens, UniProt P28472+P48169)
- Construct: expressed in transfected cells; host or cells: HEK293 (transient transfection, plasmids 1:1:1)
- experimental details: Patch-clamp electrophysiology, compound alone or with 10 nM GABA (Table 3)
- Assay type: cell-based
- condition info: without GABA; relative to peak current in GABA only; read-out: Emax (without GABA)
reported metric: Emax (%)
State the answer as a number, implicitly in %.

Example entries and their recorded answers appear below.
{"columns": ["compound", "Emax [%]"],
 "data": [
  ["C[C@@]1(O)CC[C@@]2(C)[C@@H](CC[C@@H]3[C@@H]2CC[C@]2(C)[C@@H](C(=O)Cn4ncnn4)CCC[C@@H]32)C1 [KH022]", 45.8],
  ["C[C@]12CC[C@@H](O)C[C@@H]1CC[C@@H]1[C@@H]2CC[C@]2(C)[C@@H](C(=O)Cn3ncnn3)CCC[C@@H]12 [KH004]", 158],
  ["CC(=O)C1CCCC2[C@@H]3CC[C@H]4C[C@H](O)CC[C@]4(C)[C@H]3CC[C@]12C (stereo partly drawn) [KH001]", 103],
  ["C[C@@]1(O)CC[C@@]2(C)[C@@H](CC[C@@H]3[C@@H]2CC[C@]2(C)[C@@H](C(=O)Cn4nnc(-c5ccccc5)n4)CCC[C@@H]32)C1 [KH039]", 121],
  ["C[C@@]1(O)CC[C@@]2(C)[C@@H](CC[C@@H]3[C@@H]2CC[C@]2(C)[C@@H](C(=O)COc4noc5ccccc45)CCC[C@@H]32)C1 [KH025]", 84.6]
]}

Let us move to another entry and its Emax.
Query: // fetch Emax; item: C[C@@]1(O)CC[C@H]2[C@H](CC[C@@H]3[C@@H]2CC[C@]2(C)[C@@H](C(=O)Cn4cc(C#N)cn4)CC[C@@H]32)C1 [The control, reference compound] ; system: GABAA4 (α4β3δ) receptor (Homo sapiens, UniProt P28472+P48169)
Response: 114

----------
- system under test: GABAA4 (α4β3δ) receptor (Homo sapiens, UniProt P28472+P48169)
- Construct: expressed in transfected cells; host or cells: HEK293 (transient transfection, plasmids 1:1:1)
- experimental details: Patch-clamp electrophysiology, compound alone or with 10 nM GABA (Table 3)
- Type: cell-based
- condition info: with 10 nM GABA; relative to peak current in GABA only; read-out: Emax (with 10 nM GABA)
reported metric: Emax (%)
Give the value in % but do not write % after it.

{"columns": ["compound", "scale unit", "Emax"],
 "data": [
  ["C[C@@]1(O)CC[C@H]2[C@H](CC[C@@H]3[C@@H]2CC[C@]2(C)[C@@H](C(=O)Cn4cc(C#N)cn4)CC[C@@H]32)C1 [The control, reference compound]", "%", 149],
  ["C[C@]12CC[C@@H](O)C[C@@H]1CC[C@@H]1[C@@H]2CC[C@]2(C)[C@@H](C(=O)Cn3ncnn3)CCC[C@@H]12", "%", 172]
]}

Query: Provide Emax value for the following compound: C[C@@]1(O)CC[C@@]2(C)[C@@H](CC[C@@H]3[C@@H]2CC[C@]2(C)[C@@H](C(=O)COc4noc5ccccc45)CCC[C@@H]32)C1
Response: 92.5

Query: Complete the entry with Emax for C[C@@]1(O)CC[C@@]2(C)[C@@H](CC[C@@H]3[C@@H]2CC[C@]2(C)[C@@H](C(=O)Cn4ncnn4)CCC[C@@H]32)C1
Response: 88.6

Query: // fetch Emax given entry CC(=O)C1CCCC2[C@@H]3CC[C@H]4C[C@H](O)CC[C@]4(C)[C@H]3CC[C@]12C (stereo partly drawn)
Response: 91.7

Query: State, in one line, measured Emax of C[C@@]1(O)CC[C@@]2(C)[C@@H](CC[C@@H]3[C@@H]2CC[C@]2(C)[C@@H](C(=O)Cn4nnc(-c5ccccc5)n4)CCC[C@@H]32)C1
Response: 125
